All values here come from ChEMBL document CHEMBL4024783.

Test system: Aspergillus flavus
Test: Antifungal activity against Aspergillus flavus ATCC MYA-3631 after 48 hrs by broth dilution method
Type: functional
Conditions: ATCC MYA-3631, 48 h
Each entry below carries its reported log10 of MIC.
Record value = log10 of MIC given in µM.

Illustrative cases are given below, each with its answer.
>>> experimental_result("CCCCCCCCCCCCCN1CCNCC1")
0.86
>>> experimental_result("CCCCCCCCCCN1CCN(CC(O)(Cn2cncn2)c2ccc(F)cc2F)CC1 (stereo not drawn)")
-0.30
>>> experimental_result("CCCCCCCCCCCCN1CCNCC1")
1.18
>>> experimental_result("OC(CN1CCOCC1)(Cn1cncn1)c1ccc(F)cc1F (stereo not drawn)")
1.38
>>> experimental_result("CN1CCN(CC(O)(Cn2cncn2)c2ccc(F)cc2F)CC1 (stereo not drawn)")
1.97
>>> experimental_result("CCCCCCCCCCCCCN1CCN(CC(O)(Cn2cncn2)c2ccc(F)cc2F)CC1 (stereo not drawn)")
0.28
>>> experimental_result("CCCCCCCCCCN1CCNCC1")
2.14
>>> experimental_result("CCCCCCCCCCCCN1CCN(CC(O)(Cn2cncn2)c2ccc(F)cc2F)CC1 (stereo not drawn)")
0.59

Could you tell me which log10 of MIC is on file for CCCCCCCCCCCCN1CCN(CC(O)(Cn2cncn2)c2ccc(Cl)cc2Cl)CC1 (stereo not drawn) ?
0.87

Can you look up the measured log10 of MIC of CCCCCCCCCCCN1CCNCC1 for me?
2.11

====

Test system: Aspergillus terreus
Experiment: Antifungal activity against Aspergillus terreus ATCC MYA-3633 after 48 hrs by broth dilution method
Format: functional
Conditions: Aspergillus terreus, ATCC MYA-3633, 48 h
Catalogue of MIC readings, one per entry.

// lookup MIC for Fc1ccc(C2(Cn3cncn3)CO2)c(F)c1 (stereo not drawn)
> 132 µM

Name the reported MIC value associated with the compound CCCCCCCCCN1CCNCC1
> 147 µM

Would you kindly share the measured MIC for CCCCCCCCN1CCNCC1 ?
> 158 µM

====

System: Candida albicans
Test: Antibiofilm activity against voriconazole resistant Candida albicans ATCC 64124 sessile cells incubated for 24 hrs by XTT reduction assay
Assay type: functional
Settings: ATCC 64124, 24 h
Property label: MIC50 (µg/mL)
// note: answer is a bare numeric in µg/mL

>>> experimental_result("CCCCCCCCCCCCN1CCN(CC(O)(Cn2cncn2)c2ccc(Cl)cc2Cl)CC1 (stereo not drawn)")
15.6
>>> experimental_result("CCCCCCCCCCCCCCN1CCNCC1")
15.6

Here is another compound to look at.
Reported MIC50 for CCCCCCCCCCCCN1CCN(CC(O)(Cn2cncn2)c2ccc(F)cc2F)CC1 (stereo not drawn) : what is it?
7.8

====

Test system: Aspergillus flavus
Test: Antifungal activity against Aspergillus flavus ATCC MYA-3631 after 48 hrs by broth dilution method
Assay type: functional
Conditions: ATCC MYA-3631, 48 h
# MIC annotations

>>> experimental_result("Fc1ccc(C2(Cn3cncn3)CO2)c(F)c1 (stereo not drawn)")
"> 132 µM"
>>> experimental_result("CC[C@H](C)C[C@H](C)CCCCCCCCC(=O)N[C@H]1C[C@@H](O)[C@@H](NCCN)NC(=O)[C@@H]2[C@@H](O)CCN2C(=O)[C@H]([C@H](O)CCN)NC(=O)[C@H]([C@H](O)[C@@H](O)c2ccc(O)cc2)NC(=O)[C@@H]2C[C@@H](O)CN2C(=O)[C@H]([C@@H](C)O)NC1=O [CASPOFUNGIN]")
"> 25.8 µM"

Let's switch to this compound now.
Please report the recorded MIC for CCCCCN1CCNCC1 .
> 200 µM
